Molecular target: Cyclin-dependent kinase 2 (Homo sapiens)
Assay: Inhibition of CDK2
pIC50: −log10 of the molar value.
Property: pIC50

Solved cases below.
| Molecular String | pIC50 |
| --- | --- |
| Cc1n[nH]c2ccc(-c3nnc(NC[C@@H](N)Cc4ccc(C(F)(F)F)cc4)s3)cc12 | 7.77 |
| Cc1n[nH]c2ccc(-c3nnc(NC[C@@H](N)Cc4cccc(C(F)(F)F)c4)s3)cc12 | 7.46 |
| Cc1n[nH]c2ccc(-c3nnc(NC[C@@H](N)Cc4ccccc4F)s3)cc12 | 6.98 |

P. N[C@H](CNc1nnc(-c2ccc3[nH]nc(-c4ccccc4)c3c2)s1)Cc1cccc(C(F)(F)F)c1
Q. Cc1n[nH]c2ccc(-c3nnc(NC[C@@H](N)Cc4ccc(F)c(F)c4)s3)cc12
Query: For this pair, P and Q , which shows a numerically higher pIC50? In your reply, give the label of the chosen option.
Response: Q
(Q: 7.72, P: 7.10)

---

Test: Oral bioavailability in Sprague-Dawley rat at 10 mg/kg
Assay type: ADME, organism-based
Settings: in vivo
Property: bioavailability (%)
Express your answer in %, writing the number without its unit.

Query: Bench note: what bioavailability did `N[C@H](CNc1nnc(-c2ccc3cnccc3c2)s1)Cc1ccc(C(F)(F)F)cc1` show?
Response: 20

---

Molecular target: RAC-alpha serine/threonine-protein kinase (Homo sapiens, UniProt P31749)
Sequence (P31749 whole entry): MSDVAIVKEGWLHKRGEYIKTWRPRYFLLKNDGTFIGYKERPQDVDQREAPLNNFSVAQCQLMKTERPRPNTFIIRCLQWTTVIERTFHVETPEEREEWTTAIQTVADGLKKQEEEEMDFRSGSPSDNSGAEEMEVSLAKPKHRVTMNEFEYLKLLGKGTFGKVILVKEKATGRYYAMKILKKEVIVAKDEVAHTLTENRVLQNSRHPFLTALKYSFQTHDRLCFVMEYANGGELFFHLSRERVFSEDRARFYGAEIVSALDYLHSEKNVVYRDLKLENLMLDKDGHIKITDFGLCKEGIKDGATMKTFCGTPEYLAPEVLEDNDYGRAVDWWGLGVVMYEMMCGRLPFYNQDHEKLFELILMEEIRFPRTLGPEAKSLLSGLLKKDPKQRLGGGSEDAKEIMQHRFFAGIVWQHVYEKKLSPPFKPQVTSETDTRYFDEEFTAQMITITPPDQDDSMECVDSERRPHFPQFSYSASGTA
Test: Inhibition of human AKT1 in human U87MG cells assessed as PRAS40 phosphorylation after 1 hr by ELISA
Assay type: cell-based, U-87MG ATCC
pIC50: −log10 of the molar value.
Property: pIC50

| Molecular String | pIC50 |
| --- | --- |
| Cc1n[nH]c2ccc(-c3nnc(NC[C@@H](N)Cc4ccc(C(F)(F)F)cc4)s3)cc12 | 6.45 |

I. N[C@H](CNc1nnc(-c2ccc3[nH]ncc3c2)s1)Cc1ccc(C(F)(F)F)cc1
II. N[C@H](CNc1nnc(-c2ccc3cnccc3c2)s1)Cc1ccc(C(F)(F)F)cc1
Query: Among I and II , whose measured pIC50 is the smaller figure? In your reply, give the label of the chosen option.
Response: I
(I: 6.35, II: 6.61)

---

Assay: Clearance in Sprague-Dawley rat at 2 mg/kg, iv
Type: ADME, organism-based
Design: dose 2 mg/kg, route intravenous
Conditions: in vivo
Property: clearance (mL/min/kg)
Express your answer in mL/min/kg, writing the number without its unit.

Query: Bench note: what clearance did `N[C@H](CNc1nnc(-c2ccc3cnccc3c2)s1)Cc1ccc(C(F)(F)F)cc1` show?
Response: 25

---

Biological target: RAC-alpha serine/threonine-protein kinase (Homo sapiens)
Experiment: Inhibition of AKT1 after 10 mins by [gamma33]ATP assay
Property: IC50 (µM)

I. Cc1n[nH]c2ccc(-c3nnc(NC[C@@H](N)Cc4ccccc4Cl)s3)cc12
II. N[C@H](CNc1nnc(-c2ccc3cnccc3c2)s1)Cc1ccc(C(F)(F)F)cc1
Query: For this pair, I and II , which shows a numerically higher IC50? In your reply, give the label of the chosen option.
Response: I

---

Biological target: RAC-alpha serine/threonine-protein kinase (Homo sapiens)
Assay: Inhibition of human AKT1 in human MDA-MB-468 cells assessed as phosphorylation-mediated nuclear translocation of GFP-tagged FKHRL1 by fluorescence microscopy
Assay type: cell-based
pIC50: −log10 of the molar value.
Property: pIC50

I. N[C@H](CNc1nnc(-c2ccc3cnccc3c2)s1)Cc1ccc(C(F)(F)F)cc1
II. N[C@H](CNc1nnc(-c2ccc3[nH]ncc3c2)s1)Cc1ccc(C(F)(F)F)cc1
III. Cc1n[nH]c2ccc(-c3nnc(NC[C@@H](N)Cc4ccc(C(F)(F)F)cc4)s3)cc12
Query: Output the entries ranked by pIC50 from maximum down to minimum. Reply with the labels, ordered as the question asks.
Response: II, III, I
(II: 6.81, III: 6.48, I: 6.16)
